- Test system: HIV (Subtype B pseudoviral strain, PSGIII) in GHOST(3) cells
- assay-protocol: Targeted drug screen, Phenocopy Screen (drug before HIV infection) in GHOST(3) cells
- condition-label: drug 24 h before infection, MOI 0.5, 48 hour; screened at 100 nM, 1 uM and 10 uM; GHOST(3) cells
Counter-ions that a name gives are not always drawn.
metric: Effect (Phenocopy Screen)

compound	Effect (Phenocopy Screen)
c1ccc2c(-c3cnn4cc(-c5ccc(N6CCNCC6)cc5)cnc34)ccnc2c1	Toxic in response
C=CC(=O)Nc1cccc(Oc2nc(Nc3ccc(N4CCN(C)CC4)cc3OC)ncc2Cl)c1	Suppressed HIV^a
O=C(NC1CCNCC1)c1[nH]ncc1NC(=O)c1c(Cl)cccc1Cl	Toxic in response
CN1CCN(CCOc2cc(OC3CCOCC3)c3c(Nc4c(Cl)ccc5c4OCO5)ncnc3c2)CC1	Suppressed HIV^a
O=c1[nH]c(=O)n([C@H]2C[C@H](O)[C@@H](CO)O2)cc1F	Toxic in response
COc1ncc(-c2ccc3nccc(-c4ccnnc4)c3c2)cc1NS(=O)(=O)c1ccc(F)cc1F	Suppressed HIV^a
C#Cc1cccc(Nc2ncnc3cc(OCCOC)c(OCCOC)cc23)c1 [Erlotinib hydrochloride]	Toxic in response
Cc1ccc([N+](=O)[O-])cc1S(=O)(=O)N(C)/N=C/c1cnc2ccc(Br)cn12	Toxic in response
Cc1ccc(C(=O)Nc2ccc(CN3CCN(C)CC3)c(C(F)(F)F)c2)cc1C#Cc1cnc2cccnn12	Suppressed HIV^a
COc1cc2c(Oc3ccc(NC(=O)C4(C(=O)Nc5ccc(F)cc5)CC4)cc3F)ccnc2cc1OCCCN1CCOCC1	Suppressed HIV^a

### Prompt Request body: readout Effect (Phenocopy Screen), system HIV (Subtype B pseudoviral strain, PSGIII) in GHOST(3) cells, query `CC(C)(C)c1cnc(CSc2cnc(NC(=O)C3CCNCC3)s2)o1` . Return the value.
### Response Toxic in response

### Prompt Request body: readout Effect (Phenocopy Screen), system HIV (Subtype B pseudoviral strain, PSGIII) in GHOST(3) cells, query `CCN1CCN(C(=O)Cc2ccc(Nc3ncc(F)c(Nc4ccc(C(=O)Nc5ccccc5Cl)cc4)n3)cc2)CC1` . Return the value.
### Response Toxic in response

### Prompt Request body: readout Effect (Phenocopy Screen), system HIV (Subtype B pseudoviral strain, PSGIII) in GHOST(3) cells, query `O=C(CCCCCCC(=O)Nc1ccccc1)NO` . Return the value.
### Response Toxic in response

### Prompt Request body: readout Effect (Phenocopy Screen), system HIV (Subtype B pseudoviral strain, PSGIII) in GHOST(3) cells, query `CC1(COc2ccc3c(c2)ncn3-c2ccc3cccc(N4CCC(N)CC4)c3n2)COC1` . Return the value.
### Response Toxic in response

### Prompt Request body: readout Effect (Phenocopy Screen), system HIV (Subtype B pseudoviral strain, PSGIII) in GHOST(3) cells, query `COC(=O)c1ccc2c(c1)NC(=O)/C2=C(\Nc1ccc(N(C)C(=O)CN2CCN(C)CC2)cc1)c1ccccc1` . Return the value.
### Response Suppressed HIV^a

### Prompt Request body: readout Effect (Phenocopy Screen), system HIV (Subtype B pseudoviral strain, PSGIII) in GHOST(3) cells, query `Cc1ccc(C(=O)Nc2cccc(C(F)(F)F)c2)cc1Nc1nc(-c2cccnc2)nc2c1cnn2C` . Return the value.
### Response Suppressed HIV^a
